tested on: SK-OV-3 ovarian; experiment: NCI-60 one-dose screen, 48 h; conditions: 10 µM unless noted
This is part of a sample that, as a whole, favours compounds with a hit. Of some 83,000 tested, about 20% had one in any assay. The source made the active and inactive calls. The calls were made as follows: active = growth percent below 10; inactive = the rest.
Labels: active, inactive

- compound: "CCOC(=O)C(Cc1ccc(OC)cc1)C(=O)OCC"
  category: "inactive"
- compound: "COc1cccc(CCNc2ncnc3c2ncn3Cc2nnc3c4ccccc4c(Cl)nn23)c1"
  category: "active"
- compound: "COc1ccc(-c2nc(-c3cn(C)c4ncccc34)cs2)cc1"
  category: "active"
- compound: "C/C=C(/C)n1cnc2c(Nc3ccccn3)nc(Cl)nc21"
  category: "inactive"
- compound: "CC(=O)Oc1ccc(OC(C)=O)c2ccccc12"
  category: "inactive"
- compound: "CN1CCN(Cc2ccc(NC(=O)c3cncc(C#Cc4cnc(N)c5ncccc45)c3)cc2C(F)(F)F)CC1"
  category: "active"
- compound: "C=C1C(=O)O[C@H]2[C@H]1CC/C(COC(=O)CSCSCC(=O)OC/C1=C/CC[C@@]3(C)O[C@H]3[C@H]3OC(=O)C(=C)[C@@H]3CC1)=C\\CC[C@@]1(C)O[C@@H]21"
  category: "inactive"
- compound: "CN(Cc1cnc2nc(N)nc(N)c2n1)c1ccc(C(=O)NC(CCC(=O)O)C(=O)O)cc1Br (centres undefined)"
  category: "inactive"
- compound: "COC1=C(C)C(=O)N2[C@@H]1[C@H](c1ccccc1)OC21C=CC(=O)C=C1"
  category: "inactive"

----------
system: OVCAR-8 ovarian; test: NCI-60 one-dose screen, 48 h (100 = growth as untreated, 0 = no growth, -100 = all killed); conditions: 10 µM unless noted
Compounds without any hit were thinned out: in the full panel of roughly 83,000, 20% have a hit.

- compound: "O=C(C1=Cc2cc3ccccc3n2Cc2cnnn21)c1ccc(O)cc1"
  measured_on: "OVCAR-8 ovarian"
  growth, %: 64.8
- compound: "C=C(CNCCO)[C@@H]1CC[C@]2(CO)CC[C@]3(C)[C@H](CC[C@@H]4[C@@]5(C)CCC(N)C(C)(C)[C@@H]5CC[C@]43C)[C@@H]12 (some centres undefined)"
  measured_on: "OVCAR-8 ovarian"
  growth, %: 36.8
- compound: "CCN(CC)CCN1C(=O)c2c(c(C)c3c(oc4ccc(O)cc43)c2C)C1=O"
  measured_on: "OVCAR-8 ovarian"
  growth, %: -5.2
- compound: "N=C(N)c1ccc(-c2ccc(-c3ccccc3)s2)cc1"
  measured_on: "OVCAR-8 ovarian"
  growth, %: 38.1
- compound: "COc1cc(/C=C/C(=O)/C=C(O)/C=C/c2ccc(OC(=O)C34CC5CC(CC(C5)C3)C4)c(OC)c2)ccc1OC(=O)C12CC3CC(CC(C3)C1)C2"
  measured_on: "OVCAR-8 ovarian"
  growth, %: 104
- compound: "Cc1c2ccncc2c(C)c2c1c1cc(CO)ccc1n2C"
  measured_on: "OVCAR-8 ovarian"
  growth, %: 6.79
- compound: "O=C(CN1CCN(c2cc3c(cc2F)c(=O)c(C(=O)O)cn3C2CC2)CC1)N/N=C/c1ccco1"
  measured_on: "OVCAR-8 ovarian"
  growth, %: 98.2
- compound: "NC(=O)c1cnc(Nc2cccc(N)c2)nc1NCCCNC(=O)C1CCC1"
  measured_on: "OVCAR-8 ovarian"
  growth, %: 71.1
- compound: "Cc1ccc(-c2nc(/C=C3/C(=O)Nc4ccc(F)cc43)c3ccccn23)cc1"
  measured_on: "OVCAR-8 ovarian"
  growth, %: 69.6

FYI, the data here is from PubChem BioAssay (NCI).
